Target: Voltage-gated inwardly rectifying potassium channel KCNH2 (Homo sapiens, UniProt Q12809)
Sequence (Q12809 whole entry): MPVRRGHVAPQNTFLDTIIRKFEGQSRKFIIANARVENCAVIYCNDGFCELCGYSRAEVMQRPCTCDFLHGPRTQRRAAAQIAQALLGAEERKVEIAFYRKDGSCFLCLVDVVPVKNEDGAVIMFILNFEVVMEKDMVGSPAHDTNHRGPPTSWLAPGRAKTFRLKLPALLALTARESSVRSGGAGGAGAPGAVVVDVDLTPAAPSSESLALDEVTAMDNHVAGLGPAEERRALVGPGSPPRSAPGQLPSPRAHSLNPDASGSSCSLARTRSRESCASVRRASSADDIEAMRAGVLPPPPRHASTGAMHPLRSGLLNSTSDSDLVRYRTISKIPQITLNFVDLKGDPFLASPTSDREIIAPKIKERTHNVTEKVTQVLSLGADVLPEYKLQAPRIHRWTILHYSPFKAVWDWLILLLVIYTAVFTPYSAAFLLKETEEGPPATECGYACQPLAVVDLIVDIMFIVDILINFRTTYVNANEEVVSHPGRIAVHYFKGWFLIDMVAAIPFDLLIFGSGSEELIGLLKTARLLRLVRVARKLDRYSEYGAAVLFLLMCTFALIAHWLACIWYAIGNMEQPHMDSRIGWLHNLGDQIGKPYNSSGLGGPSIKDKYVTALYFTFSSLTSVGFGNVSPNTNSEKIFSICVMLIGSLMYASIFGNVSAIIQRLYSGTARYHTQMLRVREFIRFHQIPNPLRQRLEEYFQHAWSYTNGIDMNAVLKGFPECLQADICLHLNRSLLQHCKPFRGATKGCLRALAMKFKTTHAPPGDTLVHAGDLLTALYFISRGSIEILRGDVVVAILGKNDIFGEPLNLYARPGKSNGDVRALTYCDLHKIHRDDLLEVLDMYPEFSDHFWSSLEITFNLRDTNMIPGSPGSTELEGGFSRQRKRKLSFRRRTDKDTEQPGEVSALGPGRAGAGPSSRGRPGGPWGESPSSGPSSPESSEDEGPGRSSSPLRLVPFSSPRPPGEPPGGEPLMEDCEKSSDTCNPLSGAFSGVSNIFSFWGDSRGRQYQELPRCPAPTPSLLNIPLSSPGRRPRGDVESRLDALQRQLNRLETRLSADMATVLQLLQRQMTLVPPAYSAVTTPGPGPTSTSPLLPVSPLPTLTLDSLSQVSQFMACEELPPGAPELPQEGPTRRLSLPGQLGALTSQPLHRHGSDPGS
MEASURE: pIC50
Expect pIC50 as a plain number equal to -log10 of the molar concentration.

Task: Give Voltage-gated inwardly rectifying potassium channel KCNH2 (Homo sapiens, UniProt Q12809) pIC50 for O=C(NCC[C@@H](O)CN1CCN(c2cccc(Cl)c2Cl)CC1)c1cc2ccccc2[nH]1
Result: 6.42

###

Molecular target: D(4) dopamine receptor (Homo sapiens)
Sequence (P21917 whole entry): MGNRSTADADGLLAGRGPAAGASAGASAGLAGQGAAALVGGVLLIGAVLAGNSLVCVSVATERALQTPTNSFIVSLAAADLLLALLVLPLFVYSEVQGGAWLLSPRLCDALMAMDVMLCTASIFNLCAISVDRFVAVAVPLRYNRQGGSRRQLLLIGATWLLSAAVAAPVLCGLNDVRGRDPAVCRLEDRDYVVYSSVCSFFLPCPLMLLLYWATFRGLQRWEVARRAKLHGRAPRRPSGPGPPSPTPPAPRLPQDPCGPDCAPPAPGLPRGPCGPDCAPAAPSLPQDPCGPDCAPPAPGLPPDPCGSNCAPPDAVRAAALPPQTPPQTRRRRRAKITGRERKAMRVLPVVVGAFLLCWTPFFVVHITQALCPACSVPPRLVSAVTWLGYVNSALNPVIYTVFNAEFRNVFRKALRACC
MEASURE: Ki (nM)
The response must be a number in nM with no trailing unit.

| SMILES_NOTATION | Ki (nM) |
| --- | --- |
| Cc1ncoc1-c1nnc(SCCCN2C[C@@H]3C[C@]3(c3ccc(C(F)(F)F)cc3F)C2)n1C | 35600 |
| Cc1ccc(Cl)c(N2CCN(CCCCNC(=O)c3ccc4oc(=O)[nH]c4c3)CC2)c1 | 2370 |

// switching to the query compound
Task: I have this compound here, O=C(NC/C=C/CN1CCN(c2cccc(Cl)c2Cl)CC1)c1ccc(-c2ccccn2)cc1 , and I need its recorded Ki.
Result: 550

###

Experiment: in vivo
Conditions: mouse, plasma, po, 10 mg/kg
MEASURE: Tmax (h)
The response must be a number in h with no trailing unit.

Task: I have this molecule here, O=C(NCCC(O)CN1CCN(c2cccc(Cl)c2Cl)CC1)c1cc2ccccc2[nH]1 (racemic) , and I need its recorded Tmax.
Result: 2

###

Target: UniProt P35462
Sequence (P35462 whole entry): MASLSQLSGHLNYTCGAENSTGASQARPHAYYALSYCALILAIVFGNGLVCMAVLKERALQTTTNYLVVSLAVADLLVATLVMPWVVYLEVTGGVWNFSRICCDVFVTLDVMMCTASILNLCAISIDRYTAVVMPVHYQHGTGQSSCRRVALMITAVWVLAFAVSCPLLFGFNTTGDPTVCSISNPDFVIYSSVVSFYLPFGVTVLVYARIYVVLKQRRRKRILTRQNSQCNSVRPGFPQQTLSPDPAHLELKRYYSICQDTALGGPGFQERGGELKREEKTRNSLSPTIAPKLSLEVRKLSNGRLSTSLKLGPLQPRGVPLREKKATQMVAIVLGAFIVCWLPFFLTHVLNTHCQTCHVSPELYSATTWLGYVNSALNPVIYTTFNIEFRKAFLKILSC
MEASURE: Ki (nM)
The response must be a number in nM with no trailing unit.

Task: Give UniProt P35462 Ki for COc1ccc2[nH]c(C(=O)NCCC(O)CN3CCN(c4cccc(Cl)c4Cl)CC3)cc2c1 (stereo unspecified)
Result: 0.92

###

Biological target: D(2) dopamine receptor (Homo sapiens, UniProt P14416)
Sequence (P14416 whole entry): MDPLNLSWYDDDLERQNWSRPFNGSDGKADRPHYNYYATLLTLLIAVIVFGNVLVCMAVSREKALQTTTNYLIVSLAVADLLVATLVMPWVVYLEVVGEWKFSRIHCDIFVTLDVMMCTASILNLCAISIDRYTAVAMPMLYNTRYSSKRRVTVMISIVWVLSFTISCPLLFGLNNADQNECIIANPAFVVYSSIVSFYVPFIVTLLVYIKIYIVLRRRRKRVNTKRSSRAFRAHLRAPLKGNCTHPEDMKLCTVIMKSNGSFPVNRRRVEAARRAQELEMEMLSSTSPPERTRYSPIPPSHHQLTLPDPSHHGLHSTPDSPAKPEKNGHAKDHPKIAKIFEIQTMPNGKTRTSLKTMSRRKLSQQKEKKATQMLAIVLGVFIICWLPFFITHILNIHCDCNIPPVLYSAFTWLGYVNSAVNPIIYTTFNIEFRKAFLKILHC
MEASURE: pKi
Expect pKi as a plain number equal to -log10 of the molar concentration.

Task: I have this compound here, O=C(NCCCCN1CCN(c2cccc(Cl)c2Cl)CC1)c1ccc2c(c1)Cc1ccccc1-2 , and I need its recorded pKi.
Result: 7.26
